System: Androgen receptor (Homo sapiens), P10275 [T878A]
Sequence (P10275 whole entry T878A): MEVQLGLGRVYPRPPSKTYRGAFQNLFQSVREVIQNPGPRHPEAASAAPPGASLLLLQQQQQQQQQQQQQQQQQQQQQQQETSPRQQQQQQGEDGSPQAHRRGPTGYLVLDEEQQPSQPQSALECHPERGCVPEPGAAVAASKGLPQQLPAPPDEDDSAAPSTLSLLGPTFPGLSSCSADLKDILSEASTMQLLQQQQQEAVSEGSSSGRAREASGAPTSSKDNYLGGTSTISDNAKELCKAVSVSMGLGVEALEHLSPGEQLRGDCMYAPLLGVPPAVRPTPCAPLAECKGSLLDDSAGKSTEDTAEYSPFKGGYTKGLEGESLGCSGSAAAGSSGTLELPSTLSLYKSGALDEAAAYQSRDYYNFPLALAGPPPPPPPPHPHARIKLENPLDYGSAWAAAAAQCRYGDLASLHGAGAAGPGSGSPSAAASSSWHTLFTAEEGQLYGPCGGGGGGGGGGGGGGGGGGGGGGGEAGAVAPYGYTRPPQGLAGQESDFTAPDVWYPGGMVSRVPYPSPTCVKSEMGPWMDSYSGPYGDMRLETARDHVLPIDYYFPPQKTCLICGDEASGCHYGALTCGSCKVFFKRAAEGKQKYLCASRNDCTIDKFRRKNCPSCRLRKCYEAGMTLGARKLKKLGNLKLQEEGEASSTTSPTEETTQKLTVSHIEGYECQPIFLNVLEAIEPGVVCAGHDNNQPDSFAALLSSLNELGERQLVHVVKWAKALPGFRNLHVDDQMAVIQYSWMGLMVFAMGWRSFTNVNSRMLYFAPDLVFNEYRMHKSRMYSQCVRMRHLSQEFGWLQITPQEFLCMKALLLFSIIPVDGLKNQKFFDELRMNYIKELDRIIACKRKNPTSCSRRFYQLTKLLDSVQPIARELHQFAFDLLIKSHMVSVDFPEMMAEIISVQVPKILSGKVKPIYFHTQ
Assay: Agonist activity at human androgen receptor T877A mutant expressed in human CV1 cells assessed as induction of receptor-mediated transactivation by MMTV-luciferase reporter gene assay
Type: functional, cell-based
Settings: CV-1
Calls of active or inactive are those of the source. The calls are words filed in the database; no cut-off is given here.
READOUT_NAME: Activity

These recorded examples may help you get a feel for the data.
{"columns": ["COMPOUND", "READOUT_NAME", "RESULT"],
 "data": [
  ["C=CC(C)[C@@](C)(N)[C@H]1CC[C@H]2[C@@H]3CC=C4C[C@@H](O)CC[C@]4(C)[C@H]3CC[C@@]21C (stereo not given in full)", "Activity", "Active"],
  ["C=CC[C@@](C)(N)[C@H]1CC[C@H]2[C@@H]3CC=C4C[C@@H](O)CC[C@]4(C)[C@H]3CC[C@@]21C", "Activity", "Active"],
  ["C[C@]12CC[C@H]3[C@@H](CC=C4C[C@@H](O)CC[C@@]43C)[C@@H]1CC[C@@H]2[C@@]1(C)CC=CC(=O)N1", "Activity", "inactive"],
  ["C=CC[C@](C)(N)[C@H]1CC[C@H]2[C@@H]3CC=C4C[C@@H](O)CC[C@]4(C)[C@H]3CC[C@@]21C", "Activity", "Active"]
]}

Dear colleague, I am looking for the recorded Activity of the following compound: C[C@]12CC[C@H]3[C@@H](CC=C4C[C@@H](O)CC[C@@]43C)[C@@H]1CC[C@@H]2[C@]1(C)CC=CC(=O)N1 inactive
